src = paper PMC12966599

- System Under Test: SHP2^E76K (Homo sapiens, UniProt Q06124, E76K)
- Method Notes: Inhibition of oncogenic mutant SHP2^E76K
Assay Readout: IC50

According to the records, this molecule Cc1cccc2c3c(ccc12)C1=C(C(=O)C3=O)[C@@H](C)CO1 [DHT, dihydrotanshinone I] displays IC50 of 1.61 µM

###

- System Under Test: UniProt P29350
- Sequence (P29350 1-597 isoform P29350-3): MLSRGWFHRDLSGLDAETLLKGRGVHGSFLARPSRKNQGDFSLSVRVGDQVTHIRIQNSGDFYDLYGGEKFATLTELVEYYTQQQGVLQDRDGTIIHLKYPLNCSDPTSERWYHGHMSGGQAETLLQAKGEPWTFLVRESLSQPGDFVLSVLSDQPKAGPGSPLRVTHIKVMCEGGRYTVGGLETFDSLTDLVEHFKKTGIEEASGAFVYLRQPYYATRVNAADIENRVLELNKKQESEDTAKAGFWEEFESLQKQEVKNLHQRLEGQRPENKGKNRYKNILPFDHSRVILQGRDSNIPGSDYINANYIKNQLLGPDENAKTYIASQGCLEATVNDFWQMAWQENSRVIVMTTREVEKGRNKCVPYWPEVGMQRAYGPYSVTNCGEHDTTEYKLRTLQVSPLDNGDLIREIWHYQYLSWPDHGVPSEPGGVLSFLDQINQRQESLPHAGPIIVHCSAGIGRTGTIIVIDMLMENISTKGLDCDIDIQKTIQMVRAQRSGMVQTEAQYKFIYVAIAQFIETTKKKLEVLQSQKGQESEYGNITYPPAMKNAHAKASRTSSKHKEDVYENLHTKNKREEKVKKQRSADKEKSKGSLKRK
Assay Readout: pIC50
Interpret pIC50 as the negative base-10 log of the concentration measured in mol/L.

According to the records, this molecule Cc1cccc2c3c(ccc12)C1=C(C(=O)C3=O)[C@@H](C)CO1 [DHT, dihydrotanshinone I] displays pIC50 of 5.60

###

- System Under Test: PTPRA (RPTPα) (Homo sapiens, UniProt P18433)
- Sequence (P18433 183-802): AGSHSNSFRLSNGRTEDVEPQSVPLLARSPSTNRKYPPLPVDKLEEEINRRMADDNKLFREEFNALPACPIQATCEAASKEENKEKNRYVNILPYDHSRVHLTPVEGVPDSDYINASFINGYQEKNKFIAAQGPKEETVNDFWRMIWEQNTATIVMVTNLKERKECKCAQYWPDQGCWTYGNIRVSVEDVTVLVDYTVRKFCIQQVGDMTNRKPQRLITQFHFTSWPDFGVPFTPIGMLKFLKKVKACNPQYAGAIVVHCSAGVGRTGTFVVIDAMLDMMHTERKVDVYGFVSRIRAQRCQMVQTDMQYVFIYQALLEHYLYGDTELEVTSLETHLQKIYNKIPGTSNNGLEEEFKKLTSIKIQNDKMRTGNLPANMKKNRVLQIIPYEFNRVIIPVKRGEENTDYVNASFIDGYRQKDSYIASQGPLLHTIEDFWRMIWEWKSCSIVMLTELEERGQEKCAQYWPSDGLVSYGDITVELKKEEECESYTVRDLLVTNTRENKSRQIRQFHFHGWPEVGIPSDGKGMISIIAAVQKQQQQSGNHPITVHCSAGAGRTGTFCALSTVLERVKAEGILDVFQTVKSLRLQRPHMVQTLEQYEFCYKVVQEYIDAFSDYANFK
Assay Readout: pIC50
Interpret pIC50 as the negative base-10 log of the concentration measured in mol/L.

According to the records, this molecule Cc1cccc2c3c(ccc12)C1=C(C(=O)C3=O)[C@@H](C)CO1 [DHT, dihydrotanshinone I] displays pIC50 of 4.30

###

- System Under Test: UniProt P24666
- Sequence (P24666 whole entry): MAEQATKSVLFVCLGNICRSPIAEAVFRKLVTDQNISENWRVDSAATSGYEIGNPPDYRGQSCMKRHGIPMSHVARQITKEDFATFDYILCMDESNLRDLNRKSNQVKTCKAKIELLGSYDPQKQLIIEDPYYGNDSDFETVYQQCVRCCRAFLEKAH
Assay Readout: IC50

According to the records, this compound Cc1cccc2c3c(ccc12)C1=C(C(=O)C3=O)[C@@H](C)CO1 [DHT, dihydrotanshinone I] displays IC50 of > 100 µM

###

Target sequence: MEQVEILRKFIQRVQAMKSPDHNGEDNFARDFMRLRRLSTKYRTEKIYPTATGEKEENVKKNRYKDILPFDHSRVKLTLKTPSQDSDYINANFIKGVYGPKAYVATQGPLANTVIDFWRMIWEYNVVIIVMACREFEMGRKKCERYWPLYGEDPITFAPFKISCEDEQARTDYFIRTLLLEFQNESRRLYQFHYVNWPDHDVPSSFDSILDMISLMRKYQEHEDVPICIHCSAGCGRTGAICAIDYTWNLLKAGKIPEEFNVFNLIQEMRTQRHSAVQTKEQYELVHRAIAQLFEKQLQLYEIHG
Assay Readout: IC50 (µM)
Provide only the numeric value, understood in µM.

According to the records, this compound Cc1cccc2c3c(ccc12)C1=C(C(=O)C3=O)[C@@H](C)CO1 [DHT, dihydrotanshinone I] displays IC50 of 32.1

###

- System Under Test: SHP2^D61V (Homo sapiens, UniProt Q06124, D61V)
- Sequence (Q06124 1-525 D61V): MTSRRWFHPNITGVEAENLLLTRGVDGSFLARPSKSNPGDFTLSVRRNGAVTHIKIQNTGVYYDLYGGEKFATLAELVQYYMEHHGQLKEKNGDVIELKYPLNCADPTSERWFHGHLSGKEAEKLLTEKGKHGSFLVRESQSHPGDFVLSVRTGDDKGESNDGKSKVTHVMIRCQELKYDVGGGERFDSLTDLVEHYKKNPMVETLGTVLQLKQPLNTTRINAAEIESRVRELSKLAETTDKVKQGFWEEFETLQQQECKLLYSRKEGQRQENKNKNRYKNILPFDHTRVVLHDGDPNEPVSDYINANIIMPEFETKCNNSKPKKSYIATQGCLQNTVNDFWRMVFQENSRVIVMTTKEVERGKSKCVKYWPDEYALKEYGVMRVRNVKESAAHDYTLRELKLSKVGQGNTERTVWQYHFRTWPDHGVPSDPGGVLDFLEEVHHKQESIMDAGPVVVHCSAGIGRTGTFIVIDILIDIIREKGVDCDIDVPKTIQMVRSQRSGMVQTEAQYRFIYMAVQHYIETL
- Method Notes: Inhibition of oncogenic mutant SHP2^D61V
Assay Readout: pIC50
Interpret pIC50 as the negative base-10 log of the concentration measured in mol/L.

According to the records, this compound Cc1cccc2c3c(ccc12)C1=C(C(=O)C3=O)[C@@H](C)CO1 [DHT, dihydrotanshinone I] displays pIC50 of 5.87

###

- System Under Test: PTPN1 (PTP1B) (Homo sapiens, UniProt P18031)
- Sequence (P18031 1-321): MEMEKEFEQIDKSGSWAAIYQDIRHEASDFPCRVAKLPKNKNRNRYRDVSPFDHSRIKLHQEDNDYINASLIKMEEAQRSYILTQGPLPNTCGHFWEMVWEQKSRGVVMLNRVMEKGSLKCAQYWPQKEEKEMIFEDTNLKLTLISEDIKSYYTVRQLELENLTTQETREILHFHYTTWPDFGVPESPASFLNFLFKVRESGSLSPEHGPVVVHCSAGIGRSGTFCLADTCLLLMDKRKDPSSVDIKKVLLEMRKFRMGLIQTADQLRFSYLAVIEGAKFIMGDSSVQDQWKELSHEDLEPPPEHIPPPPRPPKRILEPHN
Assay Readout: pIC50
Interpret pIC50 as the negative base-10 log of the concentration measured in mol/L.

Result for Cc1cccc2c3c(ccc12)C1=C(C(=O)C3=O)[C@@H](C)CO1 [DHT, dihydrotanshinone I] , tested on PTPN1 (PTP1B) (Homo sapiens, UniProt P18031), pIC50: 5.03
